I'd be grateful if you could share measured IC50 for these entries.
- subject of test: EGFR Del19/T790M/C797S (Homo sapiens, UniProt P00533, C797S/DEL746-750/T790M)
- Sequence (P00533 with tags, fused parts or gaps DEL746-750/T790M/C797S): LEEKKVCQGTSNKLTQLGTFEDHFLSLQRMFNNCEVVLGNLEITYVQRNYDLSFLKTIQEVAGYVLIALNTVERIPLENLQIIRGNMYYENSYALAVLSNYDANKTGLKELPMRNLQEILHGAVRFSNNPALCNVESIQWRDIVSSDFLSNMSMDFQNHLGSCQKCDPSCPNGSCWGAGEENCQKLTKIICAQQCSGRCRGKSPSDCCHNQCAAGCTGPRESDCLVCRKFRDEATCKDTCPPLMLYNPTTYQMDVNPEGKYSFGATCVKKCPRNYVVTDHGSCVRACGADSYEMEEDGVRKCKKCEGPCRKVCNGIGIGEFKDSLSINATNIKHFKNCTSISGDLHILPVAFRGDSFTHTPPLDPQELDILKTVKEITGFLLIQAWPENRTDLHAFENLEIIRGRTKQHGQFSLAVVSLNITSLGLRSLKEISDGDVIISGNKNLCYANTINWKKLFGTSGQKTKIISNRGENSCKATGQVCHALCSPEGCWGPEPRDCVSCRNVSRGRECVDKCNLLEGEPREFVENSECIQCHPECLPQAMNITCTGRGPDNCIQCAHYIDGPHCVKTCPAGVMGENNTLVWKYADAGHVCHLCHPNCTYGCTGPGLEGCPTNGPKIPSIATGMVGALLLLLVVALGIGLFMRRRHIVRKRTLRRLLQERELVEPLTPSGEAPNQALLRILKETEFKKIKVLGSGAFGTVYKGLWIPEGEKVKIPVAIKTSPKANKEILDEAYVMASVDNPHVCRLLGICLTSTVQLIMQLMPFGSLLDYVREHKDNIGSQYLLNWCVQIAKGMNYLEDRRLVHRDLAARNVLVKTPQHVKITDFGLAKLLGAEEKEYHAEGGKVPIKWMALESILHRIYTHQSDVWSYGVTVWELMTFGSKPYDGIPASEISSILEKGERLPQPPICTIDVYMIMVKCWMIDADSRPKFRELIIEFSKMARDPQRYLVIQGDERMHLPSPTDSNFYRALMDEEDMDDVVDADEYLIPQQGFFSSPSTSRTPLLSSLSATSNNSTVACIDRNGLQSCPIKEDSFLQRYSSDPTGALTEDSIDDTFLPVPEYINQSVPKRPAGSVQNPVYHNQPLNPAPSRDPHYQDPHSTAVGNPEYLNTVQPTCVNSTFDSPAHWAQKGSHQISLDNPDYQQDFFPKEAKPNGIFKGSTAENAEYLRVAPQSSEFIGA
- protocol description: Biochemical EGFR kinase inhibition assay (Lance Ultra TR-FRET), triple mutant del19/T790M/C797S
- test settings: IC50 Del19/T790M/C797S (nM), 100 μM ATP
One number for each entry, in nM.

Please look at the items below and tell me IC50 for each one, in order.
1. O=C(c1ccc(C#Cc2cnc(Nc3ccnc(-c4cnn(S(=O)(=O)C5CC5)c4)n3)cc2N2CCC[C@@H](O)C2)cc1)N1CCC(O)CC1
2. O=S(=O)(C1CC1)n1cc(-c2nccc(Nc3cc(N[C@H]4CC[C@@H](O)CC4)c(C#CC4(O)CCOCC4)cn3)n2)cn1
3. CN(C)C(=O)c1cccc(C#Cc2cnc(Nc3ccnc(-c4cnn(S(=O)(=O)C5CC5)c4)n3)cc2N2CCC(C)(CO)CC2)n1
4. CN(C)C[C@H]1CC[C@@H](Nc2cc(Nc3ccnc(-c4cnn(S(=O)(=O)C5CC5)c4)n3)ncc2C#Cc2cnn(C(F)F)c2)CC1
5. CN(C)CC1(C)CCN(c2cc(Nc3ccnc(-c4cnn(S(=O)(=O)C5CC5)c4)n3)ncc2C#CC2CCN(C(=O)C(F)(F)F)C2)CC1 (stereo not drawn)
6. O=S(=O)(C1CC1)n1cc(-c2nccc(Nc3cc(NC4CCC(O)CC4)c(C#CC4(O)CCOC4)cn3)n2)cn1 (stereo not drawn)

// result
1.5
0.6
0.9
0.8
0.3
0.2
